Target: T1, human recombinant CD73 enzyme (CD73 extracellular region) (human, UniProt P21589 27-549)
T1 sequence (looked up): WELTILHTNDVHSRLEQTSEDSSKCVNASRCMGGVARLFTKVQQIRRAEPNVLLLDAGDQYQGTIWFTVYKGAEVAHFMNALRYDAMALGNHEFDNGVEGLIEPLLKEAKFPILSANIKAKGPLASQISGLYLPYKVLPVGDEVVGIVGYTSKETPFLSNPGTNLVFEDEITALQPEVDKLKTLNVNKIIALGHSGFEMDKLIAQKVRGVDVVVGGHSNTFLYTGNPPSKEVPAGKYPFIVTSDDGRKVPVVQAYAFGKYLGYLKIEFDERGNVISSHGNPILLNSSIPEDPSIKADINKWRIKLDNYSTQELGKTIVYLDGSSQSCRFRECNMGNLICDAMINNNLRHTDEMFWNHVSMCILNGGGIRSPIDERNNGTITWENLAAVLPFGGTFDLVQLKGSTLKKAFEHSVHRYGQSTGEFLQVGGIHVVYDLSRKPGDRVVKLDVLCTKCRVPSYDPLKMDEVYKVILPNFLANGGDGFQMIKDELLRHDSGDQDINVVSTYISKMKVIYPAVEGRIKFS
Assay: cell-based or functional assay
measured property: IC50, inhibition of the catalytic function of recombinant human CD73 enzyme (µg/mL)
The figure you give is taken to be in µg/mL; do not add the unit.

As a guide, the following entries are already answered.
Ask: Would you kindly share the measured IC50, inhibition of the catalytic function of recombinant human CD73 enzyme for humanized antibody 3D7-HM7-FC1 (Fc fusion) heavy: QRQLVESGGGLVQPGGSLRLSCAASGFLLDYYVIGWFRQAPGKEREGVSCISGSDRSTYYADSVKGRFTISRDNSKNTVYLQMGSLRAEDTAVYYCAADPSPVTVQAMCLPRFPVPYWGQGTLVTVSSEPKSSDKTHTCPPCPAPEFEGGPSVFLFPPKPKDTLMISRTPEVTCVVVDVSHEDPEVKFNWYVDGVEVHNAKTKPREEQYNSTYRVVSVLTVLHQDWLNGKEYKCKVSNKALPASIEKTISKAKGQPREPQVYTLPPSRDELTKNQVSLTCLVKGFYPSDIAVEWESNGQPENNYKTTPPVLDSDGSFFLYSKLTVDKSRWQQGNVFSCSVMHEALHNHYTQKSLSLSPGK ?
Reply: 0.0456

Ask: Please give the measured IC50, inhibition of the catalytic function of recombinant human CD73 enzyme for this binder: humanized antibody 3D7-HM9-FC1 (Fc fusion) heavy: QRQLVESGGGLVQPGGSLRLSCAASGFLLDYYVIGWFRQAPGKEREGVSCISGSDRSTYYADSVKGRFTISRDNAKNTVYLQMSSLRAEDTAVYYCAADPSPVTVQAMCLPRFPVPYWGKGTLVTVSSEPKSSDKTHTCPPCPAPEFEGGPSVFLFPPKPKDTLMISRTPEVTCVVVDVSHEDPEVKFNWYVDGVEVHNAKTKPREEQYNSTYRVVSVLTVLHQDWLNGKEYKCKVSNKALPASIEKTISKAKGQPREPQVYTLPPSRDELTKNQVSLTCLVKGFYPSDIAVEWESNGQPENNYKTTPPVLDSDGSFFLYSKLTVDKSRWQQGNVFSCSVMHEALHNHYTQKSLSLSPGK
Reply: 0.0187

Query binder follows.
Ask: If you can, please state the reported IC50, inhibition of the catalytic function of recombinant human CD73 enzyme value of humanized antibody 3D7-HM8-FC1 (Fc fusion) heavy: QRQLVESGGGLVQPGGSLRLSCAASGFLLDYYVIGWFRQAPGKEREGVSCISGSDRSTYYADSVKGRFTISRDNSKNTVYLQMSSLRAEDTAVYYCAADPSPVTVQAMCLPRFPVPYWGQGTLVTVSSEPKSSDKTHTCPPCPAPEFEGGPSVFLFPPKPKDTLMISRTPEVTCVVVDVSHEDPEVKFNWYVDGVEVHNAKTKPREEQYNSTYRVVSVLTVLHQDWLNGKEYKCKVSNKALPASIEKTISKAKGQPREPQVYTLPPSRDELTKNQVSLTCLVKGFYPSDIAVEWESNGQPENNYKTTPPVLDSDGSFFLYSKLTVDKSRWQQGNVFSCSVMHEALHNHYTQKSLSLSPGK .
Reply: 0.0555
